The entries below are paired with their reported growth inhibition.
experiment: NCI Yeast Anticancer Drug Screen. Data for the sgs1 mgt1 strain (AID 161);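 note: 0% = growth of cultures given vehicle only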; details: S. cerevisiae sgs1 mgt1 strain, at 50.0 µM, stronger effect = higher value
This is part of a sample that, as a whole, favours compounds with a hit. Of some 79,000 tested, about 15% had one in any assay. Calls of active or inactive are those of the source. Cut-off read from the data, not from the text of the source: active = growth inhibition above about 70%; inactive = the rest.
measured.endpoint: growth inhibition

{"compound": "COC(=O)CC1c2cc(OC)c3cccc(OC)c3c2CCC1(C)C(=O)OC (stereo not drawn)", "measured.endpoint": "growth inhibition", "meas.value": "93.2% (active)"}
{"compound": "CCCCN(C)N=Nc1c(C(N)=O)n[nH]c1C(C)C", "measured.endpoint": "growth inhibition", "meas.value": "29.4% (inactive)"}
{"compound": "CCOC(=O)C(=Cc1cccnc1C)C(=O)OCC", "measured.endpoint": "growth inhibition", "meas.value": "60.7% (inactive)"}

Cited source for all entries: PubChem BioAssay (NCI)
